Data provenance is paper PMC12040169.

Attribute: viability at 28.5 h, 10 µM
assay: in vitro; settings: human, hela cells, % viability
Parameter: viability at 28.5 h, 10 µM (%)

| Molecule | Measure Unit | Observed Measurement |
| --- | --- | --- |
| CC1CCc2nc(NC(=O)Cn3cccc(C(=O)Nc4ccc(F)cc4)c3=O)sc2C1 (stereo not drawn) [CBK286063] | % | 95.5 |
| CN1CCN(CC2(CNC(=O)c3ccc(C(=O)O)cc3)CC2)CC1 [CBK307517] | % | 102 |
| CC(=O)c1ccc(N2CCN(S(=O)(=O)c3ccc(O)c(C(=O)O)c3)CC2)cc1 [CBK296961] | % | 94 |
| CC(C)N1C(=O)[C@@H]2CN(C(=O)C3CCCC3)CCN2C1=O [CBK289612] | % | 88.8 |
| CC(C)(C)C(=O)N1CCC(c2nc3ccccc3cc2N)CC1 [CBK285039] | % | 101 |
| O=C(Cc1cccc2ccccc12)NC(=S)Nc1ccc(S(=O)(=O)N2CCCCC2)cc1 [CBK266283] | % | 106 |
| Cc1nc2c(oc3nc(-c4ccoc4)c4c(c32)CC(C)(C)OC4)c(-c2ccccc2)c1C(=O)O [CBK265286] | % | 109 |
| CCn1c(C)cc(C(=O)NC2CCN(c3ncccc3C#N)CC2)c1C [CBK306524] | % | 87.8 |
| O=c1[nH]c2ncc(-c3cccc4ccccc34)nc2n1Cc1cccnc1 [CBK064274] | % | 102 |
